# Protocol Description: Oral bioavailability in Sprague-Dawley rat at 2 umol/kg
# Type: ADME, organism-based
# Condition Description: in vivo
Readout Kind: bioavailability (%)
Expressed in %, but write only the number.

Ask | So what's the measured bioavailability for this one? NC(=O)c1cccc(C[C@H]2C[C@H]3CC[C@@H](C2)N3Cc2ccccc2)c1
Reply | 5

----------
# Protocol Description: Ratio of drug level brain to plasma in Sprague-Dawley rat at 5 umol/kg, iv
# Type: ADME
# Condition Description: brain and plasma, read-out: BPR
Readout Kind: Kp
Please reply with the value in numeric form only.

Ask | So what's the measured Kp for this one? CN(C)C(=O)N[C@H]1CC[C@@H](CCN2[C@@H]3CC[C@H]2C[C@@H](Oc2cccc(C(N)=O)c2)C3)CC1
Reply | 0.22
